The reported numbers originate from PubChem BioAssay (NCI).

Please go through the items and note down their TGI.
# System: OVCAR-3 ovarian
# assay info: NCI tumour cell line growth inhibition, 48 h
Where a SMILES comes first, the peptide text is derived from it.

The examples below pair each entry with its known result.
Oc1cccc2cc(Br)cnc12: > 26.3 µM
CCC(C)C1NC(=O)C2CCCN2C(=O)CNC(=O)C(C)NC(=O)C(Cc2ccccc2)NC(=O)C(C(C)C)NC1=O (stereo not drawn) (cyclo(GPIVFA); configuration not given here): > 100 µM
N#Cc1c(N)nc(N)nc1N[C@H](c1nc2c(F)ccc(Cl)c2c(=O)n1-c1cccnc1)C1CC1: 16.3 µM
Cc1ccc(NC(=S)SCCC(=O)O)cc1: > 100 µM
CC(C)(C)OC(=O)c1ccc(NCC2=CC(=O)C=CC2=O)cc1: 16.1 µM
Cc1ccc(N2CCN(CCC(=O)O)CC2)cc1: > 100 µM

Would you be so kind as to report TGI for each listed record?
1. O=C(CN1CCOCC1)c1ccc2c(c1)oc(=O)n2CCN1CCCC1
2. COc1cc(C2C3=C(COC3=O)Nc3c2ccc2c3CCCC2)cc2c1OCO2 (stereo not drawn)
3. O/N=C(\CC(O)(C(F)(F)F)C(F)(F)F)c1cccc(Cl)c1
4. CC1Cc2cc(O)c(O)cc2-c2cc(O)c(O)cc2CC1C (stereo not drawn)
5. CC(C)(C)OC(=O)C1=C2C=C(O)C=CC2(C)N(Cc2ccccc2)C1=N (stereo not drawn)
6. C/C(=N\N=C(\[Se])N(C)C)c1ccccn1
7. Nc1nc2ccc(OCC(O)CN3CCCCC3)cc2[n+]([O-])n1 (stereo not drawn)
8. CCCCCCOc1ccc(C(=O)N(C)O)cc1

Solution:
["> 100 µM", "0.0518 µM", "49.4 µM", "29.3 µM", "13.8 µM", "11.8 µM", "> 100 µM", "> 100 µM"]

----------
# System: PC-3 prostate
# assay info: NCI tumour cell line growth inhibition, 48 h
Please go through the items and note down their GI50.

The examples below pair each entry with its known result.
Cc1ccc(C2=C(c3ccc(C)cc3)C3(c4ccc(C)cc4)C4C(=O)c5ccccc5C(=O)C4C2(c2ccc(C)cc2)S3=O)cc1 (stereo not drawn): > 100 µM
Cn1c2ccccc2c2c3[nH][nH]c(=O)c3c3c4ccccc4[nH]c3c21: 2.03 µM
COc1cc(-c2cc(/C=C/C(=O)c3ccc(Cl)c(Cl)c3)[nH]n2)cc(OC)c1OC: 5.96 µM
Cc1[nH]nc2c1N=C(c1ccccc1F)c1cc(C(N)=O)ccc1N2: 2.26 µM
N#Cc1c(N)nc(N)nc1N[C@H](c1nc2c(F)ccc(Cl)c2c(=O)n1-c1cccnc1)C1CC1: 2.3 µM

Would you be so kind as to report GI50 for each listed record?
1. Cc1[nH]c(-c2nc3ccccc3[nH]2)c(C)c1C(=O)NC(C)C1CCCCC1 (stereo not drawn)
2. Cc1ccc(C2=C(c3ccccc3)C(c3ccccc3)Oc3ccc(C)cc32)cc1 (stereo not drawn)
3. O=C1Nc2ccccc2/C1=C\c1nc(C2CCN(S(=O)(=O)c3ccc(F)cc3)CC2)n2ccccc12
4. CCCCc1n(Cc2ccc3ccccc3c2)cc[n+]1Cc1ccc2ccccc2c1
5. Cc1cc2nc3cc(C)c(N)cc3[n+](-c3ccccc3)c2cc1N
6. N=C(N)c1ccc(-c2ccc(-c3cccs3)s2)s1
7. C=C(CC(=O)O)C(=O)O (tested in a mixture with another compound)

Solution:
12 µM
12.8 µM
4.98 µM
1.11 µM
3.63 µM
1.53 µM
> 50 µg/mL

# GI50 (molecule: CCc1cc2ncc(CN3CCN(c4ccc(C(=O)NC)nc4)CC3)cc2[nH]c1=O ) is 51.7 µM
